pIC50: −log10 of the molar value.
Study the reported pIC50 values for UniProtKB P48736 given below; they originate from different publications.

• C[C@H](NC(=O)c1c(N)nn2cccnc12)c1cc2cccc(F)c2c(=O)n1-c1ccccc1 = > 7.00
• COc1cc(-c2cccc3cc([C@H](C)NC(=O)c4c(N)nn5cccnc45)n(C)c(=O)c23)ccn1 = 5.00 to 6.00
• Cc1ccccc1-n1c(Cn2nc(C#CC3CC3)c3c(N)ncnc32)cc2nccc(C)c2c1=O = < 5.00

Continue with the next compound.
The compound listed as CN(C)CCCNC(=O)Nc1ccc2c(c1)C(=O)/C(=C/c1cn(C)c3nccc(N4CC5CCC(C4)O5)c13)O2 has a reported pIC50 of 7.47
